Measured target: T1, Human GUCY2C ECD Cleaved (human, UniProt P25092 24-430)
T1 construct: also called human GUCY2c extracellular domain protein (ECD)
T1 sequence (P25092 other isoform, or with tags, fused parts or gaps): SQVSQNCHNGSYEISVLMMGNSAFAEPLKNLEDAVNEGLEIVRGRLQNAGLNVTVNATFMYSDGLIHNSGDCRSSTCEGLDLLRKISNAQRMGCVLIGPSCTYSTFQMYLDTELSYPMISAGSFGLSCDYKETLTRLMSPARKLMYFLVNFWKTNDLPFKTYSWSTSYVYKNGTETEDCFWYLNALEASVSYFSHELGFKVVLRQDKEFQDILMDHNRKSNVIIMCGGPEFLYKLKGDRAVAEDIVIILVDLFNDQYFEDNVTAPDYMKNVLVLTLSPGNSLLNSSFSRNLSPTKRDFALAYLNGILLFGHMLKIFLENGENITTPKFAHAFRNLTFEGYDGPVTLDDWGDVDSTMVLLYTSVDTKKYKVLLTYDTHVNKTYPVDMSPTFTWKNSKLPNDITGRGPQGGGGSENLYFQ
Assay overview: SPR, human IgG1 against human GUCY2c ECD
Outcome measure: Kd (nM)
Give the number; nM is assumed, so skip it.

Binder	Kd (nM)
GUCY2C-1696 (antibody, human IgG1, V domains shown, full human IgG1/kappa) VH: EVQLVESGGGLVQPGGSLRLSCAASGFTFSTRWMHWVRQAPGKGLEWIGEIKPSNKLTNVHEKFKDRFTISVDKAKNSAYLQMNSLRAEDTAVYYCARTITTTEGYWFLSDWGQGTLVTVSS VL: DIQLTQSPSSLSASVGDRVTITCRASESVDYYGHSLMQWYQQKPGKAPKLLIYAASKLASGVPSRFSGSGSGTDFTLTISSLQPEDFATYYCQQTRKAYTFGQGTKLEIK	12.4
GUCY2C-1713 (antibody, human IgG1, V domains shown, full human IgG1/kappa) VH: EVQLVESGGGLVQPGGSLRLSCAASGFTFSHTWMHWVRQAPGKGLEWIGEIKPSRGFTNVHEKFKDRFTISVDKAKNSAYLQMNSLRAEDTAVYYCTRTITTTQGYWFFDVWGQGTLVTVSS VL: DIQLTQSPSSLSASVGDRVTITCRASESVNWYGSSLMQWYQQKPGKAPKLLIYAASKLASGVPSRFSGSGSGTDFTLTISSLQPEDFATYYCQQTRKAYTFGQGTKLEIK	6.71
GUCY2C-1715 (antibody, human IgG1, V domains shown, full human IgG1/kappa) VH: EVQLVESGGGLVQPGGSLRLSCAASGFTFSSYWMHWVRQAPGKGLEWIGEIKPSTKYTNVHEKFKDRFTISVDKAKNSAYLQMNSLRAEDTAVYYCTRTIFTNEGYWFFDVWGQGTLVTVSS VL: DIQLTQSPSSLSASVGDRVTITCRASESVSIYGSSLMQWYQQKPGKAPKLLIYAASKLASGVPSRFSGSGSGTDFTLTISSLQPEDFATYYCQQTRKAYTFGQGTKLEIK	4.07

I am curious: what Kd value has been reported for GUCY2C-1705 (antibody, human IgG1, V domains shown, full human IgG1/kappa) VH: EVQLVESGGGLVQPGGSLRLSCAASGFTFSSYWMHWVRQAPGKGLEWIGEIKPSRGFTNVHEKFKDRFTISVDKAKNSAYLQMNSLRAEDTAVYYCTRTITTTEGYWFFDVWGQGTLVTVSS VL: DIQLTQSPSSLSASVGDRVTITCRASESVDYYGSSLMQWYQQKPGKAPKLLIYAASKLASGVPSRFSGSGSGTDFTLTISSLQPEDFATYYCQQTRKAYTFGQGTKLEIK ?
6.25

I am curious: what Kd value has been reported for GUCY2C-1640 (antibody, human IgG1, kappa, V domains shown) VH: EVQLVESGGGLVQPGGSLRLSCAASGFTFSSYWMHWVRQAPGKGLEWIGEIKPSNELTNVHEKFKDRFTISVDKAKNSAYLQMNSLRAEDTAVYYCTRTITTTEGYWFFDVWGQGTLVTVSS VL: DIQLTQSPSSLSASVGDRVTITCRASESVDYYGSSLLQWYQQKPGKAPKLLIYAASKLASGVPSRFSGSGSGTDFTLTISSLQPEDFATYYCQQTRKAYTFGQGTKLEIKR ?
13.9
